Experiment: Single-dose pharmacokinetics of Compound B, fasted and fed cohorts
Format: in vivo, human
Conditions: human, plasma, oral, 8 mg, single dose 8 mg with a high-fat meal, IFE Cohort; read-out: AUCinf Mean (% CV)
Result type: AUC(0-inf)
Give the number first and the unit second.

(Q) Any idea what its AUC(0-inf) is? The molecule is CCCCOc1nc(N)c2c(n1)N(Cc1cccc(CN3CCCC3)c1)CC(=O)N2 [Compound B]
(A) 71.4 ng·h/mL

====

Test: Single-dose pharmacokinetics of Compound B, fasted and fed cohorts
Assay type: in vivo, human
Settings: human, plasma, oral, 1 mg, single dose 1 mg, Cohort 2, fasted; read-out: T½ Median (Q1, Q3) (converted)
Result type: half-life (h)
Numbers only; they are read as h.

(Q) Consider the compound CCCCOc1nc(N)c2c(n1)N(Cc1cccc(CN3CCCC3)c1)CC(=O)N2 [Compound B] and give its measured half-life.
(A) 26.9

====

Test: Single-dose pharmacokinetics of Compound B, fasted and fed cohorts
Type: in vivo, human
Settings: human, plasma, oral, 8 mg, single dose 8 mg, Cohort 6, fasted; read-out: AUCinf Mean (% CV)
Result type: AUC(0-inf)

(Q) Give the measured AUC(0-inf) of "CCCCOc1nc(N)c2c(n1)N(Cc1cccc(CN3CCCC3)c1)CC(=O)N2" .
(A) 109 ng·h/mL

====

Assay: Single-dose pharmacokinetics of Compound B, fasted and fed cohorts
Format: in vivo, human
Details: human, plasma, oral, 0.3 mg, single dose 0.3 mg, Cohort 1, fasted; read-out: Tmax Median (Q1, Q3)
Result type: Tmax (h)
Please state the figure in h; there is no need to write the unit.

(Q) Suppose we examine the compound CCCCOc1nc(N)c2c(n1)N(Cc1cccc(CN3CCCC3)c1)CC(=O)N2 [Compound B] ; what Tmax value has been reported?
(A) 3

====

Experiment: Single-dose pharmacokinetics of Compound B, fasted and fed cohorts
Format: in vivo, human
Details: human, plasma, oral, 1 mg, single dose 1 mg, Cohort 2, fasted, plasma; read-out: Cmax Mean (% CV)
Result type: Cmax (ng/mL)
# unit: ng/mL | format: bare number

(Q) Which value of Cmax has been reported for "CCCCOc1nc(N)c2c(n1)N(Cc1cccc(CN3CCCC3)c1)CC(=O)N2" in the records?
(A) 0.44

====

Assay: Single-dose pharmacokinetics of Compound B, fasted and fed cohorts
Type: in vivo, human
Conditions: human, plasma, oral, 8 mg, single dose 8 mg, Cohort 6, fasted; read-out: T½ Median (Q1, Q3) (converted)
Result type: half-life (h)
Unit h implied. Number only.

(Q) Recorded half-life of CCCCOc1nc(N)c2c(n1)N(Cc1cccc(CN3CCCC3)c1)CC(=O)N2 [Compound B] , please.
(A) 19.5

====

Experiment: Single-dose pharmacokinetics of Compound B, fasted and fed cohorts
Assay type: in vivo, human
Conditions: human, plasma, oral, 8 mg, single dose 8 mg post high-fat meal (4 hours), Cohort 9; read-out: T½ Median (Q1, Q3) (converted)
Result type: half-life (h)
# unit: h | format: bare number

(Q) Consider the molecule shown here: "CCCCOc1nc(N)c2c(n1)N(Cc1cccc(CN3CCCC3)c1)CC(=O)N2" What is its recorded half-life?
(A) 20.5

====

Test: Single-dose pharmacokinetics of Compound B, fasted and fed cohorts
Type: in vivo, human
Settings: human, plasma, oral, 2 mg, single dose 2 mg, Cohort 3, fasted; read-out: Tmax Median (Q1, Q3)
Result type: Tmax (h)
Field format: number, assumed h, no unit text.

(Q) Please report the recorded Tmax for "CCCCOc1nc(N)c2c(n1)N(Cc1cccc(CN3CCCC3)c1)CC(=O)N2" .
(A) 6
